Data credit: BindingDB's records for doi:10.1021/jm00169a008

Target Of Assay: Acetylcholinesterase (Mus musculus, UniProt P21836)
Sequence (P21836 whole entry): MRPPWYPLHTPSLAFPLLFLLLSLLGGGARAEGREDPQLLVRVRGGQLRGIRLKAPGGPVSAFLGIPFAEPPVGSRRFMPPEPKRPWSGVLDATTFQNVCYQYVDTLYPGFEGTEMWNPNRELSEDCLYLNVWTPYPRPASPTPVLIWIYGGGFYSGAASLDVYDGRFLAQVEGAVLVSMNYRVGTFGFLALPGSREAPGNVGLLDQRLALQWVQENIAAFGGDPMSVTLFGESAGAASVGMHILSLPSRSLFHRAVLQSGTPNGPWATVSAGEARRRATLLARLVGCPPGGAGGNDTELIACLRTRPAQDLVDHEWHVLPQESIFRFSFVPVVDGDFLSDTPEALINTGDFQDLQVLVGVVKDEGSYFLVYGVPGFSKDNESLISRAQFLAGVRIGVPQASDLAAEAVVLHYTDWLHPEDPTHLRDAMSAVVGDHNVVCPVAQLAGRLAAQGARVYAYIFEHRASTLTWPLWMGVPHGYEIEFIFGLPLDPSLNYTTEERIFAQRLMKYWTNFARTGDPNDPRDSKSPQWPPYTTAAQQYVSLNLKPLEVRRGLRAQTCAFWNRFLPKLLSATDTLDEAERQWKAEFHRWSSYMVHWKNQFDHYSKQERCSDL
pIC50: −log10 of the molar value.
Rule: pIC50 of 6 or more gives Y; anything lower gives N.

| Compound Structure | Assigned Label |
| --- | --- |
| CN(CCC1CCN(CCc2ccccc2)CC1)C(=O)c1ccccc1 | N |

# input Determine whether measured pIC50 meets or exceeds 6 for CN(CCC1CCN(C(=O)c2ccccc2)CC1)C(=O)c1ccccc1
# output N

# input Identify whether the reported pIC50 of the following compound is 6 or greater: CN(CCC1CCN(Cc2ccc([N+](=O)[O-])cc2)CC1)C(=O)c1ccccc1
# output N

# input API: above_or_equal(metric=pIC50, cutoff=6) for item Cc1cccc(CN2CCC(CCN(C)C(=O)c3ccccc3)CC2)c1
# output Y

# input Dear colleague, could you confirm whether CN(CCC1CCN(Cc2cccc([N+](=O)[O-])c2)CC1)C(=O)c1ccccc1 has pIC50 at or above 6?
# output Y

# input Is reported pIC50 greater than or equal to 6 here: CN(CCC1CCNCC1)C(=O)c1ccccc1
# output N
